- assayTarget: glutamate-activated channels of the GRIN1/2A subtype stably transfected in HEK 293 cells (Homo sapiens (Human), UniProt Q05586+Q12879)
- Sequence (Q12879 whole entry, looked up, other chains not shown): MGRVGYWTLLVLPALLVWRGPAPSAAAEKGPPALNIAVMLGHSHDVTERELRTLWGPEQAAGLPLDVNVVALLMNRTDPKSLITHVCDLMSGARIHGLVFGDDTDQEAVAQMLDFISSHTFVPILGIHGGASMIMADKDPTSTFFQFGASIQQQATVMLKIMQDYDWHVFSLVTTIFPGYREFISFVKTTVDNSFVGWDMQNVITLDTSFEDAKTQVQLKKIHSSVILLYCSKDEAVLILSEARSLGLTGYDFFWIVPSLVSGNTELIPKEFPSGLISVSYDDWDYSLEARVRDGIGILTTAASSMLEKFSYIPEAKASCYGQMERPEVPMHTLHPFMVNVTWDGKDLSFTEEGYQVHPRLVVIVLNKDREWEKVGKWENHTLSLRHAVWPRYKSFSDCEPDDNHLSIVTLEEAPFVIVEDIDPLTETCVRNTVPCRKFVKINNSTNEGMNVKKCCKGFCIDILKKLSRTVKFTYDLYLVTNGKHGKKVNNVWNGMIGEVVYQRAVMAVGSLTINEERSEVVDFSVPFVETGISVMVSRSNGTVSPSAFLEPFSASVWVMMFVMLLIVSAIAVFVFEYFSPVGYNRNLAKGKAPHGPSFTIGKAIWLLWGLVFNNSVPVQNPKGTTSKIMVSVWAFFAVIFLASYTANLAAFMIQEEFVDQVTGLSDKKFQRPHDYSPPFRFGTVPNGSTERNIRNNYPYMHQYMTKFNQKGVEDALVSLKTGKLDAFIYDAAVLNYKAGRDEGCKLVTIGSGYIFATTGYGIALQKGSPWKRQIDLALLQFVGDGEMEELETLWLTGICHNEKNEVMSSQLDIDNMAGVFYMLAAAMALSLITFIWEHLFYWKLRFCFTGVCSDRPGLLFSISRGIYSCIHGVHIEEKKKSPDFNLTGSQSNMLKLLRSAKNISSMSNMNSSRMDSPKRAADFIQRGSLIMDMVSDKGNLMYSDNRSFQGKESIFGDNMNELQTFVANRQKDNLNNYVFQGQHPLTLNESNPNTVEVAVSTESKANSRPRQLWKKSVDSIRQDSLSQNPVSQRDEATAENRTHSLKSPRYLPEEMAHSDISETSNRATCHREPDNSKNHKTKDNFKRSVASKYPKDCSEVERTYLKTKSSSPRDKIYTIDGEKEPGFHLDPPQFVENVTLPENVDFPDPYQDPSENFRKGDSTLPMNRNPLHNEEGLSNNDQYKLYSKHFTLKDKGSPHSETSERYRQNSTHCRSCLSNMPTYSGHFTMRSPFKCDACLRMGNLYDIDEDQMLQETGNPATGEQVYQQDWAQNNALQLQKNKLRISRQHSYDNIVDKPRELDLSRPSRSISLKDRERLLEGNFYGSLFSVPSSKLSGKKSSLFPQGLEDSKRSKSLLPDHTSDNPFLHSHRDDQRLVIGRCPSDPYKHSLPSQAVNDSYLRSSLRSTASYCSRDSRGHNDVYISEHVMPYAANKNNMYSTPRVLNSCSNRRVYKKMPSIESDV
- experimentDescription: Automated patch-clamp system (QPatch HTX), percent potentiation at 1 μM
- Format: cell-based
- conditionInfo: HEK293, 1 μM test compound, 300 μM NMDA with 8 μM glycine, HEK 293 GRIN1/2A, read-out: GluN2A PCA % potentiation at 1 μM
- Procedure: NMDA potentiation in mammalian cells which expressed NMDA receptors was assessed using the automatic patch-clamp system can be used determine the NAM activity of compounds as described below. An whole cell patch-clamp system can be used determine the PAM activity of compounds as described below. Automated Patch-Clamp System (OPatch HTX): […]
# activation at 1 µM values compiled below

# count of solved cases: 2
- CC[C@]1(O)CC[C@@]2(C)[C@@H](CC[C@@H]3[C@@H]2CC[C@]2(C)[C@@H]([C@H](C)[C@H](C)O)CC[C@@H]32)C1: -40 to -10%
- COC[C@]1(O)CC[C@@]2(C)C(=CC[C@H]3[C@@H]4CC[C@H]([C@H](C)[C@H](O)C(F)(F)F)[C@@]4(C)CC[C@@H]32)C1: -40 to -10%

Lookup: Identify measured activation at 1 µM corresponding to CCC[C@H](O)[C@@H](C)[C@H]1CC[C@H]2[C@@H]3CC[C@@H]4C[C@](O)(CC)CC[C@]4(C)[C@H]3CC[C@]12C
Found: -40 to -10%
